ASSAY_PROCEDURE: chemical genetic growth profiling, strain panel (AID 1159580);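 also: tested at 20 µM; growth read once vehicle control cultures reached saturation at 30 °C; 1 = growth at the plate median or of vehicle wells; lower values mean less growth of the strain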
ASSAY_SETUP: S. cerevisiae deletion strains, growth OD, locus YMR125W, strain sto1, stronger effect = lower value
Out of some 5,500 compounds screened, about 2,000 (36%) were called active. Another 18% or so got no clear call; they are omitted. This is one part of the list.
Quick list: normalized growth per entry.
Respond using a number only.

COC(=O)c1c(OC)cc2c(c1C)Oc1c(Cl)c(O)c(Cl)c(C)c1C(=O)O2 = 1.01
COc1ccc([C@@H]2CC(=O)c3c(O)cc(O[C@@H]4O[C@H](CO[C@H]5O[C@@H](C)[C@H](O)[C@@H](O)[C@H]5O)[C@@H](O)[C@H](O)[C@H]4O)cc3O2)cc1O = 0.972
CC(=O)O[C@H]1CCC2(C)C3=C(CCC2C1(C)C)[C@]1(C)CCC(C(C)CCC=C(C)C)[C@@]1(C)CC3 (some centres not stated) = 1.02
Nc1ccc(S(=O)(=O)NC(=O)c2ccccc2)cc1 = 0.977

Dear colleague, I am looking for the recorded normalized growth of the following molecule: `CC(=O)c1ccc(O)c(CC=C(C)C)c1` 1

Note, next up: `CC(=O)Oc1ccc(/C=C/c2cc(OC(C)=O)cc(OC(C)=O)c2)cc1` 0.974

Note, next up: C/C=C\C1=C(C(=O)O)N2C(=O)C(NC(=O)C(N)c3ccc(O)cc3)C2SC1 (configuration not stated) 1.02

----------
ASSAY_PROCEDURE: chemical genetic growth profiling, strain panel (AID 1159580);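 also: tested at 20 µM; growth read once vehicle control cultures reached saturation at 30 °C; 1 = growth at the plate median or of vehicle wells; lower values mean less growth of the strain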
ASSAY_SETUP: S. cerevisiae deletion strains, growth OD, locus YBR231C, strain swc5, stronger effect = lower value
About 2,000 (36%) of roughly 5,500 compounds were called active. Roughly 18% stayed inconclusive and do not appear here. Some of the results follow.
ENDPOINT_LABEL: normalized growth
Respond using a number only.

CC(C)CCCC(C)C1CCC2C3C[C@@H](O)[C@@]4(O)C[C@@H](O)CC[C@]4(C)C3CC[C@]12C (some centres not stated) = 1.01
COc1ccccc1OCC(O)CO (configuration not stated) = 1.02
CN1CCN(C(=O)OC2c3nccnc3C(=O)N2c2ccc(Cl)cn2)CC1 (configuration not stated) = 0.979
CC(CCC(=O)O)[C@H]1CCC2C3CC[C@@H]4C[C@H](O)CC[C@]4(C)C3C=C[C@@]21C (some centres not stated) = 1.02
CC(C)(C)NCC(O)c1ccc(O)c(CO)c1 (configuration not stated) = 1.01

Dear colleague, I am looking for the recorded normalized growth of the following compound: CC(CCc1ccccc1)NCC(O)c1ccc(O)c(C(N)=O)c1 (configuration not stated) 1.01

Note, next up: CC(CCC(=O)O)[C@H]1CCC2C3C(=O)C[C@@H]4CC(=O)CC[C@]4(C)C3CC(=O)[C@@]21C (some centres not stated) 0.994

Note, next up: O=P1(N(CCCl)CCCl)NCCCO1 (configuration not stated) 0.995

----------
ASSAY_PROCEDURE: chemical genetic growth profiling, strain panel (AID 1159580);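 also: tested at 20 µM; growth read once vehicle control cultures reached saturation at 30 °C; 1 = growth at the plate median or of vehicle wells; lower values mean less growth of the strain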
ASSAY_SETUP: S. cerevisiae deletion strains, growth OD, locus YAL026C, strain drs2, stronger effect = lower value
The campaign covered roughly 5,500 compounds. About 2,000 (36%) were called active. Roughly 18% stayed inconclusive and do not appear here. This is one part of the list.
Quick list: normalized growth per entry.
Respond using a number only.

O=C(NCO)c1cccnc1 = 1.01
O=C(OCc1ccccc1)c1ccccc1 = 0.93
CC(=O)c1ccc(O)c(CC=C(C)C)c1 = 0.952
CCCN(CCC)S(=O)(=O)c1ccc(C(=O)O)cc1 = 0.999

Lab note: next compound to report on.
Dear colleague, I am looking for the recorded normalized growth of the following compound: `CCOC(=O)[C@H](CCc1ccccc1)N[C@@H](C)C(=O)N1CCC[C@H]1C(=O)O` 1
